FYI, the data here is from PubChem BioAssay (NCATS).

System: KB-3-1
Assay: Cytotoxic Profiling of Annotated Libraries Using Quantitative High-Throughput Screening (AID 1296008); note: nearly all actives have a fitted effect of over 60% in size
Details: Five cell lines viability, CellTiter-Glo ATP luminescence, 48-72 h; stronger effect = lower value
Protocol: Cell-based phenotypic screening is a commonly used approach to discover biological pathways, novel drug targets, chemical probes and high-quality hit-to-lead molecules. […] A pintool (Kalypsys) was used to transfer 23 nL of compound solution to the 1536-well assay plates. […] Plates were left at room temperature for 10 min before imaging the ATP-coupled luminescence using a ViewLux microplate imager (PerkinElmer, Waltham, MA).
Records with an inconclusive call do not appear.
Simple rule here: max response less than 6% is fulfilled, otherwise not fulfilled.

Compound: COC1CC(O[C@H]2CC[C@@]3(C)C(=CC[C@]4(O)C3[C@H](O)[C@@H](O)[C@]3(C)[C@@H]([C@H](C)O)CC[C@@]34O)C2)OC(C)C1OC1CC(OC)C(OC2CC(OC)C(OC3OC(C)C(OC4OC(CO)C(O)C(O)C4O)C(OC)C3O)C(C)O2)C(C)O1 (stereo partly drawn)
Cat: fulfilled

Compound: COc1ccc(C(=O)CC(=O)O)c2c1C=CC(C)(C)O2
Cat: not fulfilled

Compound: CC(CCO)CCC1C2(C)CCCC(C)(C)C2CC[C@@]1(C)O (stereo partly drawn)
Cat: not fulfilled

Compound: CCCO[C@@H]1O[C@H](CO)[C@@H](O)[C@H](O)[C@H]1O[C@@H]1OC[C@@H](O)[C@H](O)[C@H]1O
Cat: not fulfilled

Compound: C=C1CC2C(C)(CCC(=O)O)C(C(C)(C)O)CCC2(C)C2(C(=O)OC)C(=O)C(C)(O)C(=O)C12C (stereo not drawn)
Cat: fulfilled

Compound: COc1ccc(C2(O)c3c(ccc4c3OC(C)(CCC=C(C)C)C=C4)NC(=O)C2OC)cc1 (stereo not drawn)
Cat: fulfilled

Compound: CSCC1OC(n2cnc3c(=O)[nH]cnc32)C(O)C1O (stereo not drawn)
Cat: fulfilled
